Ref: paper PMC9722314

- assay-method-text: Equilibrium solubility of rosuvastatin calcium in single hydrotropic agent solutions
- Type: physicochemical
- setup-conditions: aqueous hydrotropic agent solution, 37 °C, aqueous with cosolvent or surfactant or cyclodextrin, thermodynamic from solid, sodium salicylate 30% w/v aqueous solution
readout-type: solubility thermodynamic at 24 h (mg/mL)
Response body: numeric value in mg/mL, unit text excluded.

query: Would you mind telling me what solubility thermodynamic at 24 h value was observed for CC(C)c1nc(N(C)S(C)(=O)=O)nc(-c2ccc(F)cc2)c1/C=C/[C@@H](O)C[C@@H](O)CC(=O)O ?
result: 97.3

* * *

- assay-method-text: Equilibrium solubility of rosuvastatin calcium in single hydrotropic agent solutions
- Type: physicochemical
- setup-conditions: aqueous hydrotropic agent solution, 37 °C, aqueous with cosolvent or surfactant or cyclodextrin, thermodynamic from solid, sodium benzoate 30% w/v aqueous solution
readout-type: solubility thermodynamic at 24 h

query: Would you mind telling me what solubility thermodynamic at 24 h value was observed for CC(C)c1nc(N(C)S(C)(=O)=O)nc(-c2ccc(F)cc2)c1/C=C/[C@@H](O)C[C@@H](O)CC(=O)O ?
result: 103 mg/mL

* * *

- assay-method-text: Equilibrium solubility of rosuvastatin calcium in mixed hydrotropic solutions
- Type: physicochemical
- setup-conditions: mixed hydrotropic solution in distilled water, 37 °C, aqueous with cosolvent or surfactant or cyclodextrin, thermodynamic from solid, SS : SB : U 20 : 15 : 05 % w/v, total 40%
readout-type: solubility (mg/mL)
Response body: numeric value in mg/mL, unit text excluded.

query: Would you mind telling me what solubility value was observed for CC(C)c1nc(N(C)S(C)(=O)=O)nc(-c2ccc(F)cc2)c1/C=C/[C@@H](O)C[C@@H](O)CC(=O)O ?
result: 129

* * *

- assay-method-text: Equilibrium solubility of rosuvastatin calcium in single hydrotropic agent solutions
- Type: physicochemical
- setup-conditions: aqueous hydrotropic agent solution, 37 °C, aqueous with cosolvent or surfactant or cyclodextrin, thermodynamic from solid, sodium salicylate 40% w/v aqueous solution
readout-type: solubility thermodynamic at 24 h (mg/mL)
Response body: numeric value in mg/mL, unit text excluded.

query: Would you mind telling me what solubility thermodynamic at 24 h value was observed for CC(C)c1nc(N(C)S(C)(=O)=O)nc(-c2ccc(F)cc2)c1/C=C/[C@@H](O)C[C@@H](O)CC(=O)O ?
result: 125

* * *

- assay-method-text: Equilibrium solubility of rosuvastatin calcium in mixed hydrotropic solutions
- Assay type: physicochemical
- setup-conditions: mixed hydrotropic agent solution in distilled water, 37 °C, aqueous with cosolvent or surfactant or cyclodextrin, thermodynamic from solid, SS : SB 5 : 35 % w/v, total 40%
readout-type: solubility at 24 h (mg/mL)
Response body: numeric value in mg/mL, unit text excluded.

query: Would you mind telling me what solubility at 24 h value was observed for CC(C)c1nc(N(C)S(C)(=O)=O)nc(-c2ccc(F)cc2)c1/C=C/[C@@H](O)C[C@@H](O)CC(=O)O ?
result: 81.1

* * *

- assay-method-text: Equilibrium solubility of rosuvastatin calcium in mixed hydrotropic solutions
- Assay type: physicochemical
- setup-conditions: mixed hydrotropic agent solution in distilled water, 37 °C, aqueous with cosolvent or surfactant or cyclodextrin, thermodynamic from solid, SS : U 20 : 20 % w/v, total 40%
- Description: In order to create a clear solution, two to three hydrotropic agents were mixed and dissolved in distilled water. Next, an excessive amount of calcium rosuvastatin was added, and the mixture was shaken until no more rosuvastatin was dissolved. […] Using a UV-visibledouble-beam spectrophotometer, a portion of the material was diluted with distilled water and analyzed at 242 nm. […]
readout-type: solubility at 24 h (mg/mL)
Response body: numeric value in mg/mL, unit text excluded.

query: Would you mind telling me what solubility at 24 h value was observed for CC(C)c1nc(N(C)S(C)(=O)=O)nc(-c2ccc(F)cc2)c1/C=C/[C@@H](O)C[C@@H](O)CC(=O)O ?
result: 77.6

* * *

- assay-method-text: Saturated solubility study in distilled water (pure drug, solid dispersions, physical mixture)
- Type: physicochemical
- setup-conditions: 37 °C, thermodynamic from solid, 37 ± 0.5°C, 24 h shaking + 24 h equilibration
readout-type: solubility (µg/mL)
Response body: numeric value in µg/mL, unit text excluded.

query: Would you mind telling me what solubility value was observed for CC(C)c1nc(N(C)S(C)(=O)=O)nc(-c2ccc(F)cc2)c1/C=C/[C@@H](O)C[C@@H](O)CC(=O)O ?
result: 427

* * *

- assay-method-text: Equilibrium solubility of rosuvastatin calcium in mixed hydrotropic solutions
- Assay type: physicochemical
- setup-conditions: mixed hydrotropic agent solution in distilled water, 37 °C, aqueous with cosolvent or surfactant or cyclodextrin, thermodynamic from solid, SS : SB : U, each 13.333 % w/v, total 40%
readout-type: solubility at 24 h (mg/mL)
Response body: numeric value in mg/mL, unit text excluded.

query: Would you mind telling me what solubility at 24 h value was observed for CC(C)c1nc(N(C)S(C)(=O)=O)nc(-c2ccc(F)cc2)c1/C=C/[C@@H](O)C[C@@H](O)CC(=O)O [rosuvastatin calcium, Rosuvastatin calcium] ?
result: 192

* * *

- assay-method-text: Equilibrium solubility of rosuvastatin calcium in single hydrotropic agent solutions
- Assay type: physicochemical
- setup-conditions: aqueous hydrotropic agent solution, 37 °C, aqueous with cosolvent or surfactant or cyclodextrin, thermodynamic from solid, citric acid 40% w/v aqueous solution
readout-type: solubility thermodynamic at 24 h (µg/mL)
Response body: numeric value in µg/mL, unit text excluded.

query: Would you mind telling me what solubility thermodynamic at 24 h value was observed for CC(C)c1nc(N(C)S(C)(=O)=O)nc(-c2ccc(F)cc2)c1/C=C/[C@@H](O)C[C@@H](O)CC(=O)O [rosuvastatin calcium, Rosuvastatin calcium] ?
result: 930
